Target: T1, human amylin-3 (a) receptor (human, UniProt P30988 25-474; O60896 24-148)
T1 sequence (looked up) 1: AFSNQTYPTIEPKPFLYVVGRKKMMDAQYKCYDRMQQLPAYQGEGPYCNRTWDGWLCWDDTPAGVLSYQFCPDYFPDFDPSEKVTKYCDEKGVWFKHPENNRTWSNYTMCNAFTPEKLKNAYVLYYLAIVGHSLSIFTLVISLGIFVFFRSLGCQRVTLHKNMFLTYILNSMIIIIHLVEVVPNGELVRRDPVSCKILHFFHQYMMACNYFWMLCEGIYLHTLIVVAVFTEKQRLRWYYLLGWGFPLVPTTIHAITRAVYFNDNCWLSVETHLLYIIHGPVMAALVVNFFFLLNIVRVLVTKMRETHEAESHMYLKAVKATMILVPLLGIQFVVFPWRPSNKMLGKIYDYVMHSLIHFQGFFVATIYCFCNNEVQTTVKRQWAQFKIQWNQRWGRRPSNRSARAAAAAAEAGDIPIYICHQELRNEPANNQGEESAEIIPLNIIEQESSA
T1 sequence (looked up) 2: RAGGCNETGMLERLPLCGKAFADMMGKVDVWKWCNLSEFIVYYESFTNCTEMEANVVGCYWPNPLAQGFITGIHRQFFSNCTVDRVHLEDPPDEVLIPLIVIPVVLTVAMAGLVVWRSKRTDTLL
Test: cell-based or functional assay
Starred links: 1 amine or outer side, 2 acyl side, 3 side chain; linkers in the order of their positions; H or OH if unused. Non-standard residues stand in square brackets, D forms with d. Groups on a side chain read outwards from the residue. *: point of attachment. C20 diacid = O=C(O)CCCCCCCCCCCCCCCCCCC(=O)*; C16 diacid = O=C(O)CCCCCCCCCCCCCCC(=O)*; γGlu = O=C(O)[C@H](CCC(=O)[*:2])N[*:1]; εLys = N[C@@H](CCCCN[*:1])C(=O)[*:2]; Trx = NC[C@H]1CC[C@H](C(=O)O)CC1; AEEA = NCCOCCOCC(=O)O; Aib = CC(C)(N)C(=O)O
Quick list: Human AmyR3 potency [EC50 (pM)] per entry.

binder	Human AmyR3 potency [EC50 (pM)]
Compound 0268 (peptide) peptide: HWEGTFTSDVSSYLEEQAAREFIAWLVRGRK([AEEA-AEEA-γGlu-Trx-C20 diacid])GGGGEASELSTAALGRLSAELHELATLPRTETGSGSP-NH2	14.4
Compound 0552 (peptide) peptide: H[Aib]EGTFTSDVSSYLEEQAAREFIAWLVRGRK([εLys-AEEA-AEEA-γGlu-C20 diacid])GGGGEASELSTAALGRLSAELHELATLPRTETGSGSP-NH2	6.9
Compound 0260 (peptide) peptide: H[Aib]EGTFTSDK([AEEA-AEEA-γGlu-C16 diacid])SSYLEEQAAREFIAWLVRGRGGGGGEASELSTAALGRLSAELHELK([AEEA-AEEA-γGlu-C16 diacid])TLPRTETGSGSP-NH2	41.8
Compound 0434 (peptide) peptide: HWEGTFTSDVSSYLEEK([εLys-AEEA-AEEA-γGlu-Trx-C20 diacid])AAREFIEWLVRGRGEASELSTAALGRLSAELHELATLPRTETGSGSP-NH2	13.9
Compound 0516 (not fully specified (residue 21)) peptide: H[Aib]EGTFTSDVSK([AEEA-AEEA-γGlu-C16 diacid])YLEEQAARKFIAWLVRGRGGGGGEASELSTAALGRLSAELHELATLPRTETGSGSP-NH2	8.9
Compound 0075 (peptide) peptide: H[Aib]EGTFTSDVSSYLEGQAAK([AEEA-AEEA-γGlu-C16 diacid])EFIAWLVRGK([AEEA-AEEA-γGlu-C16 diacid])GGGEASELSTAALGRLSAELHELATLPRTETGSGSP-NH2	43.9
Compound 0414 (peptide) peptide: HAEGTFTSDVSSYLEEK([AEEA-AEEA-γGlu-Trx-C20 diacid])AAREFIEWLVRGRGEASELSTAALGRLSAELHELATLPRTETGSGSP-NH2	17.7
Compound 0396 (peptide) peptide: H[Aib]EGTFTSDVSSYLEEK([AEEA-AEEA-γGlu-C16 diacid])AAREFIAWLVRGRGGGGGEASELSTAALGRLSAELHELK([AEEA-AEEA-γGlu-C16 diacid])TLPRTETGSGSP-NH2	32.8
